- procedure summary: Novel Modifiers of Survival Motor Neuron (SMN) Protein: Gene Identification via Genome-wide siRNA Screen;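 further: luminescence tracks full-length SMN protein made from the SMN2 reporter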
- conditions: HEK293T SMN2-luciferase reporter, siRNA knockdown, 72 h; actives lie on both sides
About 1,400 (4.5%) of roughly 31,000 sequences were called active. This excerpt belongs to a sample that is enriched for actives.
endpoint name: median seed-adjusted z-score

* GGCUUAAAGACAUUGAACATT against KLHL1 | 0.067
* GGAGGCUCGUUUUCCCGUATT against EGR4 | 0
* GCCCAGUUGCUUAACGAAUTT against ACVR2A | -0.22
* CUACGAUUCUGGUGGAAUATT against TRRAP | -1.25
* GCUAUUAUCUAAGCACGAATT against ADAMTS20 | 1.44
* GAUGAUUACCAGGAACGAATT against CAPRIN1 | 1.36
* CAAGAGCAGUUUAAUAGCATT against BAT3 | 0.567
* CAUUGAGAAUAAUAACAGATT against PPP3CA | 0.74
* GGAGAAAACCUUCGAGCAGTT against NKX6-2 | 0.101
* CCCACACUCUAGACUGAAATT against MEF2D | 0.0021
* CCUACACCAUGAUCGGAAATT against KIF26B | -0.153
* GAUCCACCUGAGACAGAAATT against EGR2 | -0.37

====

Reported median seed-adjusted z-score is given for each of the following sequences.
- procedure summary: Novel Modifiers of Survival Motor Neuron (SMN) Protein: Gene Identification via Genome-wide siRNA Screen;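 further: luminescence tracks full-length SMN protein made from the SMN2 reporter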
- conditions: HEK293T SMN2-luciferase reporter, siRNA knockdown, 72 h; actives lie on both sides
About 1,400 (4.5%) of roughly 31,000 sequences were called active. This excerpt belongs to a sample that is enriched for actives.
endpoint name: median seed-adjusted z-score

* CAAUAGUCCUGAGACCGAATT against MYST3 | -0.49
* GGAUUUCUCAUGGAAGUUUTT against CUTC | -0.377
* CCAUCAACACUGAAUUGCATT against SEC22B | -0.106
* CCUUCAAUGUGGGCUACCATT against DEGS2 | -0.305
* GCAGAUCACAUGAAGAGAATT against DHX38 | -0.723
* GCGAUGCCUAUAAAACCUATT against TRYX3 | 2.3
* CGAGAAAUCCCACAAGCGATT against NOVA2 | 0
* CUUCCUAGGUUACAAGUAATT against FAM84B | -0.431
* GGAAAGUUUUUAAGGCGAATT against UHRF2 | -0.0941
* GGGACGAGAUGGUAAAGAATT against ATP2B2 | 1.37
* CUGCUCACCCUUUACAUCATT against KIF12 | 0.0971
* GCAUCGUGGGCAUAGCGUATT against PCSK6 | 0

====

- procedure summary: Novel Modifiers of Survival Motor Neuron (SMN) Protein: Gene Identification via Genome-wide siRNA Screen;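 further: luminescence tracks full-length SMN protein made from the SMN2 reporter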
- conditions: HEK293T SMN2-luciferase reporter, siRNA knockdown, 72 h; actives lie on both sides
- Experimental: Spinal muscular atrophy (SMA) is the most common neuromuscular autosomal recessive disorder and one of the leading genetic causes of infant death. […] Briefly, 1 pmol of each siRNA was spotted to a well of a 384-well plate (Corning, Corning, NY) and 20 microL of serum-free DMEM containing […] of Lipofectamine RNAiMax (Life Technologies, Carlsbad, CA) was then added to each well. […] Raw luminescence reads were normalized to Ambion(R) Silencer(R) Negative Control #2 siRNA, then log10 transformed. […]
Out of some 31,000 sequences screened, about 1,400 (4.5%) were called active. The entries come from a sample that favours actives as a whole.
endpoint name: median seed-adjusted z-score

• UGAGUUGCCCUGAUUUGAATT against AIF1 = -0.0293
• GGAUGUUGUUUAUCGAGGATT against MED21 = -1.3
• GCAUCGGCAUUGAAGGCUUTT against ALOX15B = 0.156
• CCUCGAUUGUCUUCCGGAATT against UBA7 = 2.41
• UCGUUUUUACAGAUGUUAATT against SAP18 = 2.14
• GACAGAAGAUCAAUAUGAATT against ETS2 = 0.636
• GGUUGAAAAGGAGUGCAAATT against CACYBP = -0.33
• GGUUAUAUACCACCUUAUATT against QRSL1 = -0.539
• CCAACGAACUCCUUACUUATT against SCP2 = 0.413
• GGAGCAGUCACUUACAGAATT against PINK1 = 0.192
• GUUAUACUGUGAGAUCUAATT against GPR160 = -0.278
• GAUCUACACUUGGAUGGAUTT against SAP18 = 2.14
